Origin of values: patent US8044057B2

# TARGET ENTITY: recombinant CK2 (Homo sapiens, UniProt P68400)
# Construct: purchased Upstate Biotechnology 17-132 (number of the activity kit, not of the enzyme)
# Sequence (P68400 whole entry): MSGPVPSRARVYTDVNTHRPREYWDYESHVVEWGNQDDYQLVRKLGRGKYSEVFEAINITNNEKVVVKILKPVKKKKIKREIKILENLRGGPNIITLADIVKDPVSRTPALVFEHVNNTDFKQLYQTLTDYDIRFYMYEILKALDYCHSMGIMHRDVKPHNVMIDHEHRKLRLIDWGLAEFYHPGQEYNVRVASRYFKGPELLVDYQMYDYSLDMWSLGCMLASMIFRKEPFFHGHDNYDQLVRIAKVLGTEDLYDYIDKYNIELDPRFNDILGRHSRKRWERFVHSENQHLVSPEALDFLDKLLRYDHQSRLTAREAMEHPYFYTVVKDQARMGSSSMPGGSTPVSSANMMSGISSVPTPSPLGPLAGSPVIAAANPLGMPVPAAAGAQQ
# Sequence (P67870 2-215 partner limits assumed): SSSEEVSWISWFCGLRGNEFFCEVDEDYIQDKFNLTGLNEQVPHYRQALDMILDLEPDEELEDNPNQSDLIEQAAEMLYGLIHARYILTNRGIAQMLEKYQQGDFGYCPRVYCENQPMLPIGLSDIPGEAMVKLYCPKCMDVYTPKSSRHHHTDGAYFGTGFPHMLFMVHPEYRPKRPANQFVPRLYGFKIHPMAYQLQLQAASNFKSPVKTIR
# EXPERIMENTAL DETAILS: Casein kinase 2 activity kit, 32P incorporation into substrate peptide
# Assay type: biochemical
# RUN PARAMETERS: recombinant CK2 in vitro; read-out: IC50 for casein kinase 2
PROPERTY LABEL: IC50

Data request: Hello, I am looking for reported IC50 with recombinant CK2 (Homo sapiens, UniProt P68400) for O=c1cc(N2CCNCC2)oc2c(-c3ccccc3)cccc12 . Could you help?
Data returned: 10 to 100 µM

====

# Tested on: P70 S6 kinase
# EXPERIMENTAL DETAILS: Western blot of phospho-p70 S6 kinase T389 in PASM cells
# Format: cell-based, human
# RUN PARAMETERS: Homo sapiens; pulmonary artery smooth muscle cells; densitometry; read-out: IC50 for inhibition of S6K phosphorylation
PROPERTY LABEL: IC50

Data request: May I ask what IC50 has been recorded for O=c1cc(N2CCNCC2)oc2c(-c3ccccc3)cccc12 [LY303511] ?
Data returned: ~1 µM
